All values here come from patent US9790228B2.

- assay system: p110δ/p85α (Homo sapiens (Human))
- Sequence (O00329 whole entry): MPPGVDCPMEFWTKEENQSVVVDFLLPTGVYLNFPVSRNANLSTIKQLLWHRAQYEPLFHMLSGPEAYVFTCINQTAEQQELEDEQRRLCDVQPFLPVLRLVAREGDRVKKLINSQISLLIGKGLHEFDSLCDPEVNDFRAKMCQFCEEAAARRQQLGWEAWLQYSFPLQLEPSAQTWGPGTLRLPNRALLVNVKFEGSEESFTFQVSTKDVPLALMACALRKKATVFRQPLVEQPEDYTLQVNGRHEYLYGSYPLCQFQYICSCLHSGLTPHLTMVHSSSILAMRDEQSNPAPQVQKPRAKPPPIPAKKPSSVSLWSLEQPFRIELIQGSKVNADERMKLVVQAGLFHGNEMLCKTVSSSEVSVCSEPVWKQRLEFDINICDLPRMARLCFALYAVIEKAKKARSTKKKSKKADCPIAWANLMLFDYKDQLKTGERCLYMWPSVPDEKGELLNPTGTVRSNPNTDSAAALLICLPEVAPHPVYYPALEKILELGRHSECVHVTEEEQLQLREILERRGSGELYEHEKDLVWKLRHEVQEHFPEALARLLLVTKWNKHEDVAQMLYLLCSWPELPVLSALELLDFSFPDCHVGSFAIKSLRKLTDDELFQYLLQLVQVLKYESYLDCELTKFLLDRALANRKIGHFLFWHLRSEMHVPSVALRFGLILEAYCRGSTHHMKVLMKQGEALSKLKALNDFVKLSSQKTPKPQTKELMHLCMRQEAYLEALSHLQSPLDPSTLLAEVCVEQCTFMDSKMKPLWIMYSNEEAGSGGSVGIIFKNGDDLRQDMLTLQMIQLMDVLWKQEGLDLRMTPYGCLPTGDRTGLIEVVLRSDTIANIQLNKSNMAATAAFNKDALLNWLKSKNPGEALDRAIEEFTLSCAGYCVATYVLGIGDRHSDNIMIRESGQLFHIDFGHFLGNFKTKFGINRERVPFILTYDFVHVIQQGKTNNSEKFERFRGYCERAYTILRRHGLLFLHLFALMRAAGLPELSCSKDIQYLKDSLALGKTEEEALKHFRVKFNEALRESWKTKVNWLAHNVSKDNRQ
- Sequence (P27986 whole entry partner): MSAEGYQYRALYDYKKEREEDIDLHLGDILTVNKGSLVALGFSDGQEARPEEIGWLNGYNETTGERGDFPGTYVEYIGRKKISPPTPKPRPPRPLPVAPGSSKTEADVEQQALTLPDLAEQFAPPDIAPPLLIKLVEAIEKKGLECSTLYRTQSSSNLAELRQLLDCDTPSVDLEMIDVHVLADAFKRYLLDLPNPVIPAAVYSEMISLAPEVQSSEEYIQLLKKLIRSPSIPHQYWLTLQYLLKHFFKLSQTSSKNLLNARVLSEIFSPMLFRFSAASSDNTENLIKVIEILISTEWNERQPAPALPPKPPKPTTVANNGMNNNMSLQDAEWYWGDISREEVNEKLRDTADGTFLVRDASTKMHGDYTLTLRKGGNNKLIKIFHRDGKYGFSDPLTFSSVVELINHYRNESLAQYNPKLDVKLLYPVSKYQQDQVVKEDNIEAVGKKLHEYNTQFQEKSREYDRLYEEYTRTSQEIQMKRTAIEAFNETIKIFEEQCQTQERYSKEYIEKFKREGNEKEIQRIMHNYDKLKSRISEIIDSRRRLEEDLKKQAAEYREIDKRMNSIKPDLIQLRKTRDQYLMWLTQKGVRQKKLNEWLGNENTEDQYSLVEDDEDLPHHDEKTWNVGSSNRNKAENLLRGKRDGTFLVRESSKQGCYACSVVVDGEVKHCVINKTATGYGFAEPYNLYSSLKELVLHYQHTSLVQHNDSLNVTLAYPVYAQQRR
- protocol description: PI3K δ inhibition assay (TLC lipid kinase or HTRF)
pIC50: −log10 of the molar value.
readout kind: pIC50

Use the examples below as a reference point.
CCn1c(=O)c(Cn2nc(-c3cccc(O)c3)c3c(N)ncnc32)nc2ccccc21 ... 6.00 to 7.00
Nc1ncnc2ccc(-c3nn(Cc4cc5ccccc5nc4-c4ccccc4)c4ncnc(N)c34)cc12 ... > 7.00
Nc1ncnc2c1c(-c1cc(O)cc(F)c1)nn2Cc1cc2ccccc2nc1NC1CCCC1 ... 6.00 to 7.00

Consider now this further compound.
Annotate the compound CCn1c(=O)c(Cn2nc(-c3ccc4nc(N)sc4c3)c3c(N)ncnc32)nc2ccccc21 with its measured pIC50.
> 7.00
